test system: chickweed (common chickweed, Stellaria media); experiment: Test D pre-/postemergence controlled growth environment herbicide test; assay type: in vivo; settings: Postemergence, 125 g ai/ha, scale 0 to 100
Measurement Label: Plant response rating

>>> result_number("Cc1cc(=O)n(-c2ccc(F)cc2)nc1Cc1ccnc(C(F)(F)F)c1 [Compound 1]")
50
>>> result_number("COc1cc(=O)n(-c2ccc(F)cc2)nc1Cc1ccnc(C(F)(F)F)c1 [Compound 17]")
60
>>> result_number("Cc1cc(=O)n(-c2ccc(C(F)(F)F)cc2)nc1Cc1ccnc(C(F)(F)F)c1 [Compound 2]")
70
>>> result_number("Cc1cc(=O)n(-c2ccc(F)cc2)nc1Oc1ccnc(C(F)(F)F)c1 [Compound 14]")
70

----------
# Plant response rating values compiled below
system: downy bromegrass (Bromus tectorum); test: Test D pre-/postemergence controlled growth environment herbicide test; format: in vivo; conditions: Preemergence, 62 g ai/ha, scale 0 to 100
Measurement Label: Plant response rating

>>> result("Cc1cc(=O)n(-c2ccc(C(F)(F)F)cc2)nc1Cc1ccnc(C(F)(F)F)c1 [Compound 2]")
0
>>> result("Cc1cc(=O)n(-c2ccc(F)cc2)nc1Oc1ccnc(C(F)(F)F)c1 [Compound 14]")
0
>>> result("COc1cc(=O)n(-c2ccc(F)cc2)nc1Cc1ccnc(C(F)(F)F)c1 [Compound 17]")
10
>>> result("Cc1cc(=O)n(-c2ccc(F)cc2)nc1Cc1ccnc(C(F)(F)F)c1 [Compound 1]")
0

----------
system: windgrass (Apera spica-venti); test: Test D pre-/postemergence controlled growth environment herbicide test; format: in vivo; conditions: Preemergence, 31 g ai/ha, scale 0 to 100
Measurement Label: Plant response rating

>>> result_number("Cc1cc(=O)n(-c2ccc(F)cc2)nc1Oc1ccnc(C(F)(F)F)c1")
5
>>> result_number("Cc1cc(=O)n(-c2ccc(F)cc2)nc1Cc1ccnc(C(F)(F)F)c1")
0
>>> result_number("Cc1cc(=O)n(-c2ccc(C(F)(F)F)cc2)nc1Cc1ccnc(C(F)(F)F)c1")
20
>>> result_number("COc1cc(=O)n(-c2ccc(F)cc2)nc1Cc1ccnc(C(F)(F)F)c1")
80

----------
Listing: Plant response rating of selected molecules
test system: ryegrass, Italian (Italian ryegrass, Lolium multiflorum); assay: Test D pre-/postemergence controlled growth environment herbicide test; type: in vivo; conditions: Postemergence, 62 g ai/ha, scale 0 to 100
Measurement Label: Plant response rating

>>> result_number("COc1cc(=O)n(-c2ccc(F)cc2)nc1Cc1ccnc(C(F)(F)F)c1")
10
>>> result_number("Cc1cc(=O)n(-c2ccc(F)cc2)nc1Cc1ccnc(C(F)(F)F)c1")
0
>>> result_number("Cc1cc(=O)n(-c2ccc(F)cc2)nc1Oc1ccnc(C(F)(F)F)c1")
10
>>> result_number("Cc1cc(=O)n(-c2ccc(C(F)(F)F)cc2)nc1Cc1ccnc(C(F)(F)F)c1")
10

----------
tested on: morningglory (Ipomoea coccinea); experiment: Test C pre-/postemergence greenhouse herbicide test; type: in vivo; conditions: Morningglory; Preemergence; 250 g ai/ha
Measurement Label: Plant response rating

>>> result_number("COc1cc(=O)n(-c2ccc(C(F)(F)F)cc2)nc1Cc1ccnc(C(F)(F)F)c1 [Compound 16]")
100
>>> result_number("Cc1cc(=O)n(-c2ccc(F)cc2)nc1Oc1ccnc(C(F)(F)F)c1 [Compound 14]")
75
>>> result_number("Cc1cc(=O)n(-c2ccc(C(F)(F)F)cc2)nc1Cc1ccnc(C(F)(F)F)c1 [Compound 2]")
100
>>> result_number("Cc1cc(=O)n(-c2ccc(F)cc2)nc1Cc1ccnc(C(F)(F)F)c1 [Compound 1]")
100
>>> result_number("COc1cc(=O)n(-c2ccc(F)cc2)nc1Cc1ccnc(C(F)(F)F)c1 [Compound 17]")
100
>>> result_number("CCOc1cc(=O)n(-c2ccc(F)cc2)nc1Cc1ccnc(C(F)(F)F)c1 [Compound 25]")
98

----------
system: oilseed rape (Brassica napus); assay: Test D pre-/postemergence controlled growth environment herbicide test; assay type: in vivo; details: Postemergence, 250 g ai/ha, scale 0 to 100
Measurement Label: Plant response rating

>>> result("COc1cc(=O)n(-c2ccc(F)cc2)nc1Cc1ccnc(C(F)(F)F)c1")
85
>>> result("Cc1cc(=O)n(-c2ccc(F)cc2)nc1Oc1ccnc(C(F)(F)F)c1")
55
>>> result("Cc1cc(=O)n(-c2ccc(F)cc2)nc1Cc1ccnc(C(F)(F)F)c1")
75
>>> result("Cc1cc(=O)n(-c2ccc(C(F)(F)F)cc2)nc1Cc1ccnc(C(F)(F)F)c1")
98

----------
tested on: oat, wild (wild oat, Avena fatua); assay: Test C pre-/postemergence greenhouse herbicide test; assay type: in vivo; conditions: Postemergence, 62 g ai/ha
Measurement Label: Plant response rating

>>> result_number("Cc1cc(=O)n(-c2ccc(F)cc2)nc1Oc1ccnc(C(F)(F)F)c1")
30
>>> result_number("Cc1cc(=O)n(-c2ccc(C(F)(F)F)cc2)nc1Cc1ccnc(C(F)(F)F)c1")
5
>>> result_number("COc1cc(=O)n(-c2ccc(F)cc2)nc1Cc1ccnc(C(F)(F)F)c1")
15
>>> result_number("Cc1cc(Oc2ccnc(C(F)(F)F)c2)nn(-c2ccc(C(F)(F)F)cc2)c1=O")
25
>>> result_number("COc1cc(=O)n(-c2ccc(C(F)(F)F)cc2)nc1Cc1ccnc(C(F)(F)F)c1")
30
>>> result_number("Cc1cc(=O)n(-c2ccc(F)cc2)nc1Cc1ccnc(C(F)(F)F)c1")
5

----------
tested on: lambsquarters (Chenopodium album); assay: Test C pre-/postemergence greenhouse herbicide test; type: in vivo; conditions: Preemergence, 125 g ai/ha
# Plant response rating per entry
Measurement Label: Plant response rating

>>> result_number("Cc1cc(=O)n(-c2ccc(C(F)(F)F)cc2)nc1Cc1ccnc(C(F)(F)F)c1 [Compound 2]")
100
>>> result_number("Cc1cc(=O)n(-c2ccc(F)cc2)nc1Cc1ccnc(C(F)(F)F)c1 [Compound 1]")
100
>>> result_number("COc1cc(=O)n(-c2ccc(F)cc2)nc1Cc1ccnc(C(F)(F)F)c1 [Compound 17]")
95
>>> result_number("Cc1cc(=O)n(-c2ccc(F)cc2)nc1Oc1ccnc(C(F)(F)F)c1 [Compound 14]")
95
>>> result_number("CCOc1cc(=O)n(-c2ccc(F)cc2)nc1Cc1ccnc(C(F)(F)F)c1 [Compound 25]")
100
>>> result_number("COc1cc(=O)n(-c2ccc(C(F)(F)F)cc2)nc1Cc1ccnc(C(F)(F)F)c1 [Compound 16]")
100

----------
# Lookup of reported Plant response rating keyed by entry
tested on: pigweed (Amaranthus retroflexus); assay: Test D pre-/postemergence controlled growth environment herbicide test; assay type: in vivo; conditions: Postemergence, 125 g ai/ha, scale 0 to 100
Measurement Label: Plant response rating

>>> result_number("Cc1cc(=O)n(-c2ccc(F)cc2)nc1Oc1ccnc(C(F)(F)F)c1")
75
>>> result_number("COc1cc(=O)n(-c2ccc(F)cc2)nc1Cc1ccnc(C(F)(F)F)c1")
30
>>> result_number("Cc1cc(=O)n(-c2ccc(C(F)(F)F)cc2)nc1Cc1ccnc(C(F)(F)F)c1")
20
>>> result_number("Cc1cc(=O)n(-c2ccc(F)cc2)nc1Cc1ccnc(C(F)(F)F)c1")
30

----------
system: foxtail, giant (giant foxtail, Setaria faberii); test: Test A pre-/postemergence greenhouse herbicide test; format: in vivo; settings: Preemergence, 125 g ai/ha; 0 to 100 scale (0 no effect, 100 complete control), approx. 10 d
Measurement Label: Plant response rating, Foxtail, Giant

>>> result_number("CN(C)c1cc(=O)n(-c2ccc(F)cc2)nc1Cc1ccnc(C(F)(F)F)c1")
80
>>> result_number("Cc1cc(=O)n(-c2ccc(F)cc2)nc1Cc1cccc(C(F)(F)F)c1")
80
>>> result_number("Cc1cc(=O)n(-c2ccc(F)cc2)nc1Oc1cccc(C(F)(F)F)n1")
80
>>> result_number("O=c1c2c(c(Oc3ccnc(C(F)(F)F)c3)nn1-c1ccc(Cl)cc1)CCCC2")
0
>>> result_number("Cc1cc(Oc2ccnc(C(F)(F)F)c2)nn(-c2ccc(F)cc2)c1=O")
80
>>> result_number("Cc1cc(Oc2cccc(C(F)(F)F)n2)nn(-c2ccc(F)cc2)c1=O")
0
>>> result_number("Cc1cc(=O)n(-c2ccccc2)nc1Oc1ccnc(C(F)(F)F)c1")
100
>>> result_number("CCCOc1cc(=O)n(-c2ccc(C(F)(F)F)cc2)nc1Cc1ccnc(C(F)(F)F)c1")
40
>>> result_number("CCCc1cc(=O)n(-c2ccc(F)cc2)nc1Cc1ccnc(C(F)(F)F)c1")
100

----------
tested on: soybean (Glycine max); test: Test C pre-/postemergence greenhouse herbicide test; type: in vivo; conditions: Glycine max, post-emergence; Soybean; Postemergence; 62 g ai/ha; read-out: Plant response rating
Description: […]
Measurement Label: plant injury at 62 g/ha (%)

>>> result_number("Cc1cc(=O)n(-c2ccc(F)cc2)nc1Oc1ccnc(C(F)(F)F)c1")
90
>>> result_number("COc1cc(=O)n(-c2ccc(C(F)(F)F)cc2)nc1Cc1ccnc(C(F)(F)F)c1")
50
>>> result_number("Cc1cc(=O)n(-c2ccc(C(F)(F)F)cc2)nc1Cc1ccnc(C(F)(F)F)c1")
30
>>> result_number("COc1cc(=O)n(-c2ccc(F)cc2)nc1Cc1ccnc(C(F)(F)F)c1")
90
>>> result_number("Cc1cc(=O)n(-c2ccc(F)cc2)nc1Cc1ccnc(C(F)(F)F)c1")
40
>>> result_number("Cc1cc(Oc2ccnc(C(F)(F)F)c2)nn(-c2ccc(C(F)(F)F)cc2)c1=O")
50
